tested.target: Human Polθ polymerase domain (aa1820-2590) (Homo sapiens)
Construct: Human Polθ polymerase domain (aa1820-2590) was expressed in E. coli; made in house; host or cells: E. coli
Sequence (O75417 1820-2590): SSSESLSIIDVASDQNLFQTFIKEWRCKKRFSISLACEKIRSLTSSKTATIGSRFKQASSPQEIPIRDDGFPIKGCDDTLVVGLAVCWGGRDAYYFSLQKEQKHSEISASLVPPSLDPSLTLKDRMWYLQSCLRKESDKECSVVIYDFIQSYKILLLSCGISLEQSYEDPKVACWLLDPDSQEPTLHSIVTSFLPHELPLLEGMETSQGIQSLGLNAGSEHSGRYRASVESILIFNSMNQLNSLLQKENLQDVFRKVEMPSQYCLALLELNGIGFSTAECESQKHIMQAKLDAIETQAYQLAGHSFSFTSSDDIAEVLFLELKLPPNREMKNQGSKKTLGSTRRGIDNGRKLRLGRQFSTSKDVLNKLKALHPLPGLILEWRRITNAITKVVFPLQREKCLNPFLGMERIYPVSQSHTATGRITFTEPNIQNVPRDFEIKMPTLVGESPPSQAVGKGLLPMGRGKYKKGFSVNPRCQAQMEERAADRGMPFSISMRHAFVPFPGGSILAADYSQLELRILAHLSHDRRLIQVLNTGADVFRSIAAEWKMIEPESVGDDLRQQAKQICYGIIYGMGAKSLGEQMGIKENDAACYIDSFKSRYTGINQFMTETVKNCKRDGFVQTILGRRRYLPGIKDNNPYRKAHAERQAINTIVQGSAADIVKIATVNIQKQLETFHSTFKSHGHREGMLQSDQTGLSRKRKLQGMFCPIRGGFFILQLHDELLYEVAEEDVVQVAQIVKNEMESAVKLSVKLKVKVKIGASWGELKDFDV
experiment.description: Polθ Polymerase Domain Kinact/KI Assay (PicoGreen)
Assay type: biochemical
protocol.conditions: 0.8 nM Polθ, 100 nM DNA substrate, kobs vs [I] fit for 2-step covalent inhibitor
quantity.name: Kinact/Kl (µM⁻¹ s⁻¹)

{"columns": ["compound", "Kinact/Kl (µM⁻¹ s⁻¹)"],
 "data": [
  ["C=CC(=O)N1CC2(CN(CCN3C[C@H]4CC(=O)N(c5cc(C(F)(F)F)cc(C)n5)[C@@H]4C(=O)N(C)c4cccc(Cl)c43)CC2C#N)C1 (single isomer, unassigned) [Example 117a]", 1.89]
]}

P: Cc1cc(C(F)(F)F)cc(N2C(=O)C[C@@H]3CN(Cc4ccc(C5CN(C(=O)/C=C/CN(C)C)C5)cc4)c4c(F)cccc4N(C)C(=O)[C@H]32)n1 [Example 146]
Q: C=CC(=O)N1Cc2nc(CN3C[C@H]4CC(=O)N(c5cc(C(F)(F)F)cc(C)n5)[C@@H]4C(=O)N(C)c4cccc(Cl)c43)sc2C1 [Example 280]
Q) Of the two listed items, P and Q , which carries the larger Kinact/Kl figure? Give the chosen item's label as your response.
A) Q
